Assay: Pharmacokinetic assays (plasma and tumor) in nude mice xenografted with MV4-11 cells
Type: in vivo, mouse
Settings: nude, mouse, plasma, ip, 50 mg/kg, AraC in plasma; gilteritinib 3, AraC 50, IDR 0.5 mg/kg; read-out: AUC24
Readout Name: AUC (ng·h/mL)

Nc1ccn([C@@H]2O[C@H](CO)[C@@H](O)[C@@H]2O)c(=O)n1    9960

---

Assay: Pharmacokinetic assays (plasma and tumor) in nude mice xenografted with MV4-11 cells
Type: in vivo, mouse
Conditions: nude, mouse, plasma, po, 3 mg/kg, gilteritinib in plasma; gilteritinib 3 mg/kg, AraC 0, IDR 0
Readout Name: Tmax (h)

CCc1nc(C(N)=O)c(Nc2ccc(N3CCC(N4CCN(C)CC4)CC3)c(OC)c2)nc1NC1CCOCC1    2

---

Assay: Pharmacokinetic assays (plasma and tumor) in nude mice xenografted with MV4-11 cells
Type: in vivo, mouse
Conditions: nude, mouse, tumor, iv, 3 mg/kg, azacitidine in tumor; gilteritinib 3, azacitidine 3 mg/kg
Readout Name: Tmax (min)

Nc1ncn([C@@H]2O[C@H](CO)[C@@H](O)[C@H]2O)c(=O)n1 [Aza, Azacitidine]    30

---

Assay: Pharmacokinetic assays (plasma and tumor) in nude mice xenografted with MV4-11 cells
Assay type: in vivo, mouse
Conditions: nude, mouse, tumor, po, 3 mg/kg, gilteritinib in tumor; gilteritinib 3, AraC 50, IDR 0.5 mg/kg
Readout Name: Tmax (h)

CCc1nc(C(N)=O)c(Nc2ccc(N3CCC(N4CCN(C)CC4)CC3)c(OC)c2)nc1NC1CCOCC1 [Gilteritinib]    4

---

Experiment: Pharmacokinetic assays (plasma and tumor) in nude mice xenografted with MV4-11 cells
Type: in vivo, mouse
Details: nude, mouse, plasma, po, 3 mg/kg, gilteritinib in plasma; gilteritinib 3, azacitidine 0 mg/kg
Readout Name: Tmax (h)

CCc1nc(C(N)=O)c(Nc2ccc(N3CCC(N4CCN(C)CC4)CC3)c(OC)c2)nc1NC1CCOCC1    2

---

Experiment: Pharmacokinetic assays (plasma and tumor) in nude mice xenografted with MV4-11 cells
Type: in vivo, mouse
Settings: nude, mouse, plasma, iv, 0.5 mg/kg; read-out: CLtot (converted)
Counter-ions that a name gives are not always drawn.
Readout Name: clearance (L/h/kg)

CC(=O)[C@]1(O)Cc2c(O)c3c(c(O)c2[C@@H](O[C@H]2C[C@H](N)[C@H](O)[C@H](C)O2)C1)C(=O)c1ccccc1C3=O [IDR, Idarubicin hydrochloride]    13

---

Assay: Pharmacokinetic assays (plasma and tumor) in nude mice xenografted with MV4-11 cells
Type: in vivo, mouse
Details: nude, mouse, plasma, po, 3 mg/kg, gilteritinib in plasma; gilteritinib 3, azacitidine 0 mg/kg
Readout Name: Cmax (ng/mL)

CCc1nc(C(N)=O)c(Nc2ccc(N3CCC(N4CCN(C)CC4)CC3)c(OC)c2)nc1NC1CCOCC1 [Gilteritinib]    11

---

Assay: Pharmacokinetic assays (plasma and tumor) in nude mice xenografted with MV4-11 cells
Type: in vivo, mouse
Details: nude, mouse, tumor, iv, 3 mg/kg, azacitidine in tumor; gilteritinib 3, azacitidine 3 mg/kg
Readout Name: Cmax (ng/g)

Nc1ncn([C@@H]2O[C@H](CO)[C@@H](O)[C@H]2O)c(=O)n1    96.8

---

Assay: Pharmacokinetic assays (plasma and tumor) in nude mice xenografted with MV4-11 cells
Assay type: in vivo, mouse
Conditions: nude, mouse, tumor, ip, 50 mg/kg, AraC in tumor; gilteritinib 3, AraC 50, IDR 0.5 mg/kg
Protocol: Plasma samples were prepared by centrifugation (n=3 per group; one sample in the combination group was excluded due to improper handling). […] These assays were conducted by Astellas Research Technologies Co., Ltd. under the guidance of Analysis & Pharmacokinetics Research Laboratories, Astellas Pharma, Inc., or by Nemoto Science Co., Ltd. (Ibaraki, Japan). […] The percent tumor regression was calculated using the formula: […]
Readout Name: Tmax (h)

Nc1ccn([C@@H]2O[C@H](CO)[C@@H](O)[C@@H]2O)c(=O)n1    2
